Just for reference, PubChem BioAssay (NCI) is where these values come from.

- Tested on: HCT-116 colon
- Assay explanation: NCI tumour cell line growth inhibition, 48 h
Readout label: TGI

Problem: Could you tell me which TGI is on file for `Cc1ccc2nc(-c3ccc(OCC(=O)N=Nc4c(O)[nH]c5ccccc45)cc3)[nH]c2c1` ?
Result: 5.35 µM

Problem: # lookup: TGI of `C=C1C(=O)O[C@H]2[C@H]1CC/C(COC(=O)NCc1ccc(OC)cc1)=C\CC[C@@]1(C)O[C@@H]21`
Result: 1.02 µM

Problem: Record request: TGI value, item `Cl/C(N=Nc1ccccc1)=N/Nc1ccccc1`
Result: > 100 µM

Problem: Which measured TGI value corresponds to `C[Si](C)(c1ccc(C(=O)O)cc1)c1ccc(C(=O)O)cc1` ?
Result: > 100 µM

Problem: Look at this compound and give its reported TGI. `COc1cccc(/C(Cl)=C(\C=O)c2cccc(OC)c2)c1`
Result: 15 µM

Problem: I would be grateful if you could share the reported TGI for COCC1OC(S(=O)(=O)c2ccccc2)C(O)C(OC)C1OC (configuration not stated) .
Result: > 100 µM

Problem: Sample CCOC(=O)CCC1(C(=O)OCC)CCCC1=O (configuration not stated) — what was its TGI?
Result: > 100 µM

Problem: Bench note: what TGI did `Cc1cccc2nc3c(=O)[nH]c(=O)nc-3n(C)c12` show?
Result: > 100 µM

Problem: Bench note: what TGI did `Cc1ccc(N(O)C(C)(C)C)cc1` show?
Result: > 100 µM

Problem: Which TGI reading was recorded for the compound `COc1ccccc1N=Nc1c(O)c(S(=O)(=O)O)cc2cc(S(=O)(=O)O)ccc12` ?
Result: > 100 µM

Problem: Which TGI reading was recorded for the compound CN1N=C(c2ccncc2)OC1c1cccc(C(F)(F)F)c1 (configuration not stated) ?
Result: > 100 µM

Problem: Reported TGI for CC1(C)CC2(C)CC1CC2(O)c1ccccc1 (configuration not stated) : what is it?
Result: > 100 µM

Problem: If you can, please state the reported TGI value of `CN(C)CCNC(=O)c1cccc2cc3cc(O)ccc3nc12` .
Result: 5.73 µM

Problem: Need TGI of `Oc1c(Cl)cc(Cl)c2ccc(Cn3cc(-c4cc(C(F)(F)F)cc(C(F)(F)F)c4)nn3)nc12` , thanks.
Result: 1.76 µM

Problem: Give its TGI value. Item: CN(C)CCNC(=O)c1ccc(-c2nc3ccc4[nH]ncc4c3c3c2C2CCC3C2)cc1 (configuration not stated)
Result: 9.13 µM

Problem: For the compound shown here, `C[Si](C)(C)C(CCCCSc1ccccc1)(Sc1ccccc1)Sc1ccccc1` , give the reported TGI.
Result: > 100 µM

Problem: Can you share its TGI? I mean this compound: `C=C[C@@]1(O)CCCC[C@@H]1CC(Sc1ccccc1)Sc1ccccc1`
Result: 31.4 µM

Problem: So what does the record say about TGI for `N#C/C(=C\c1ccc([N+](=O)[O-])s1)c1nc2cc(Cl)ccc2s1` ?
Result: 1.27 µM

Problem: State the recorded TGI for this entry: `COc1ccc(NC(=O)/C=C(C)/C=C/C=C(C)/C=C/C2=C(C)CCCC2(C)C)cc1`
Result: 6.99 µM

Problem: Given the entry `CN(C)/C=N\c1ccnc(=O)[nH]1` , report its measured TGI.
Result: > 100 µM

Problem: Look up TGI for this compound: `CS[C@]12[C@@H]3C(=O)N(C)C(=O)[C@@H]3[C@](C)(C(=O)N1C)C(=O)N2c1ccccc1`
Result: > 100 µM

Problem: Look up TGI for this compound: `CNNC(=N\S(=O)(=O)c1cc(C)c(Cl)cc1SCc1ccccc1)/N=C/c1ccc([N+](=O)[O-])s1`
Result: > 100 µM

Problem: Need TGI, item `CCN(Cc1cc(F)ccc1F)c1ccc(CO)c(Cl)c1`
Result: 11.7 µM

Problem: Name the recorded TGI for `N=C(N)SCCC(=O)CCSC(=N)N` .
Result: > 100 µM

Problem: Can you share its TGI? I mean this compound: `CCn1c(-c2cc3c([nH]c4ccccc43)c(-c3cccc(O)c3)n2)n[nH]c1=S`
Result: 15 µM

Problem: Item O=C1CC(C(CC(=O)c2ccccc2)c2ccccc2)C(=O)c2ccccc2N1 (configuration not stated) has what recorded TGI?
Result: > 100 µM

Problem: What value of TGI has been recorded for this entry: `C[N+](C)(C)C=Nc1cccc2c1CCCC2`
Result: > 100 µM

Problem: Give the measured TGI of `Cc1cccc2c1c1ccc3c(c1n2C)C(=O)C=CC3=O` .
Result: 15.1 µM

Problem: State the recorded TGI for this entry: `COc1cc2ncnc(-n3ncc4cc(NC(=O)Nc5ccc(Cl)c(Cl)c5)ccc43)c2cc1OC`
Result: 10.3 µM

Problem: Recorded TGI of CCOC(=O)c1cc2c(OCc3ccccc3)c(OC)cc3c2c(n1)N(c1ccc(OC)cc1)C(C)C3 (configuration not stated) , please.
Result: > 50 µM

Problem: Please give the measured TGI for this compound: `Cc1cc(Nc2nc(C(=O)Nc3ccccc3)nc3ccccc23)n[nH]1`
Result: > 25 µM

Problem: I'd like to know its TGI. The compound in question is `Nc1cccc(S(=O)(=O)Nc2nnc(S(N)(=O)=O)s2)c1`
Result: > 100 µM

Problem: Name the recorded TGI for `O=C1C[C@@H]2[C@@H](CCC23CC3)N1` .
Result: > 100 µM

Problem: Record request: TGI value, item COc1ccc2c(c1)CC[C@@H]1C2CC[C@](C)(C#N)C1CC#N (some centres not stated)
Result: > 100 µM

Problem: Could you tell me which TGI is on file for `CC(=O)NNc1nc(C)c(C(=O)NNC(=O)C(=O)Nc2cccc(C(C)=O)c2)s1` ?
Result: > 100 µM

Problem: Bench note: what TGI did `COc1ccc2c(c1OC)-c1c(c3ccc([N+](=O)[O-])cc3c(=O)n1CCCBr)C2=O` show?
Result: > 100 µM

Problem: Record request: TGI value, item `CO[C@H]1O[C@@H]2CO[C@@H](c3ccccc3)O[C@H]2[C@@H]2C/C=C\CCC[C@@]12O`
Result: 30.9 µM
